# TEST_DETAILS: yeast display, Sf9 membrane polyspecificity reagent, FACS + sequencing; frameworks hold sequencing errors
VALUE_KIND: polyreactivity (PSR sort gate)

Would you please look over these solved cases?
RESIDUE_SEQUENCE	OBSERVED_RESULT
QVQLVESGGGLVQAGGSLRLSCAASGITFGRNAMGWYRQAPGKERELVAAISRGGSTNYADSVKGRFTISRDNAKNTVYLQMNSLKPEDTAVYYGNALSWPHGSWIPIHRRYGYWGQGTQVTVSS	high polyreactivity
QVQLVESGGGLVQAGGSLRLSCAASGSTSVQYAMGWYRQAPGKERELVAAIDRSGGSTSYADSVKGRFTISRDNAKNTVYLQMNTLKPEDTAVYYCNADPVRSTYSYDYWGQGTQVTVSS	low polyreactivity
QVQLVESGGVLVQAGGSLRLSCAASGFIFKKYAMGWYRQEPGKEMELVAAITIGGSTYYADSVKGRFTISRDNAKNTVYLQMNSLKPEDTAVYYCAAVQGKVRGGYYWGQGTQVTVSS	high polyreactivity
QVQLVESGGGLVQAGGSLRLSCAASGSTFHGYALGWYRQAPGKERELVAAISWSGGRTYYADSVKGRFTISRDNAKNTVYLQMNSLKPEDTAVYYCNKDGYYRWQSTYLANRYDYWGQGTQVTVSS	high polyreactivity

Query sequence follows.
The measured polyreactivity (PSR sort gate) associated with QVQLVESGGGLVQAGGSLRLRCAASGSTCFLYAMGWYRQAPGKEMELVASISDGSSTNYADSVKGRFTISRDNAKNTVYLQMNSLKPEDTAVYYCDAARWYAHRVDYWGQGTQVTVSS reads low polyreactivity

###

# TEST_DETAILS: yeast display, Sf9 membrane polyspecificity reagent, FACS + sequencing; frameworks hold sequencing errors
VALUE_KIND: polyreactivity (PSR sort gate)

RESIDUE_SEQUENCE	VALUE_KIND	OBSERVED_RESULT
QVQLVESGGGLVQAGGSLRLSCAASGRIFPTSTKGWYRQAPGKERELVAAITSGGTTYYADSVKGRVTISRDNAKNTVYLQMNSLKPEDTAVYYCAALRPRRGYYYWGQGTQVTVSS	polyreactivity (PSR sort gate)	high polyreactivity
QVQRVESGGGLGQAGGSLRLSCAASGIIFDYYAMGWYRQAPGNERELVAAITTSGGRTYYADSVKGRFTISRDNEKNTVYLQMNRLKPEDTAVYYCAASRPSPRPRDGYWGQGTQVTVSS	polyreactivity (PSR sort gate)	high polyreactivity
QVQLVESGGGLVQAGGSLRLSCAASGSIVIINAMGWYRQAPGKERELVASMTRNGGSTYYADSVKGRFTISRDNPKNTVEFQMNSLKPDDTAVYYCAATYYRFPSLIAYVRYDYWGQGTQVTVSS	polyreactivity (PSR sort gate)	high polyreactivity
QVQLVESGGGLVQAGGILRLSCAASGRTLDCNAMGWYRQAPGKERELDAAITVTGSSTYYADSVKGRFTISRDNAKNTVYLQMNSLKPEDTAVYYCAKASGGDVRYSYSYRMDYWGQGTQVTVSS	polyreactivity (PSR sort gate)	low polyreactivity
QVQLVESGGGLVQAGGSHRLSCAASGRILYGYAMGWYRQAPGQERELVASITWSGGSTYADSVKGRFTISRDNAKNTVYLQMKSLKPEDTAVYYCATRRGPKWQWLTYGYWGLGTQVTVSS	polyreactivity (PSR sort gate)	low polyreactivity

Short answer for QVQLEESGGGLVQAGGSLRLSCAASGSTFRDYAMGWYRQAPGKQRELVAAITSGGSTNYADSVKGRFTISRDNAKNTVYLQMNSLKPEDTAVYYCNARYAGWYTPWGRQSVYSDDYWGQGTQVTVSS : polyreactivity (PSR sort gate) was low polyreactivity

For reference, reported polyreactivity (PSR sort gate) for QVQLVESGGGLVQAGGSLRLSCAASGRTFIANAMGWSRQAPGKERELVAAISWSGGSTYYADSVKGRFTISRDNAKNTVYLQMNSLKPEDTAVYYCTAKRFRTGFDYWGQGTQVTVSS stands at low polyreactivity

Form: sequence = QVQLVESGVGIVQARGSLRLSCAASGYTFYRYTMGWYRQSRGNERELVAAINSGGSTNYADSVKGRFTISRDNAKNTVYLQMNSLKPEDTAVYYCAAGDGPWLPRVHYGGYGYWGQGTQVTVSS ; polyreactivity (PSR sort gate) = high polyreactivity

// field: polyreactivity (PSR sort gate); key: QVQLVESGGGLVQAGGSLRLSCAASGRTSIWNSMGWYRQAPGKERELVASISWSGGSTYYADSVKGRFTISRDNAKNTVYLQMNSLKPEDTAVSYCAKTAYFLVFNEHLHNKRYDSWGQGTQVTVSS ; value = low polyreactivity

// polyreactivity (PSR sort gate) value for QVQLVESGGGLVQAGGSLRLSCAASGSPFYAYAMGWYRQAPGKERQLVAAITYRDGRTNYADSVKGRFTISRDNAKNTVYLQMNSMKPEDTEVYYCARITGFTVRRYDYWGQGTQVTVSS : high polyreactivity

polyreactivity (PSR sort gate) for QVQLVESGGGLVQAGGSLRLSCAASGLTFGRNAMGWYRQAPGKERELVAAISRSGGRTSYADSVKGRFTISRDYAKNTVYLQMNSLKPEDTSVYFCAALSDVYTHDYWGQGTQVTVSS is high polyreactivity

###

# TEST_DETAILS: yeast display, Sf9 membrane polyspecificity reagent, FACS + sequencing; frameworks hold sequencing errors
VALUE_KIND: polyreactivity (PSR sort gate)

RESIDUE_SEQUENCE	OBSERVED_RESULT
QVQLVESGGGLVQAGGSLRLSCAASGSIFYVYAMGWYRQAPGKERELVATISTGGSTYYADSVKGRFTISRDNAKNTVYLQMNSLKPEDTAVYYCNAQFTPRYRGGYDSWGQCTQVTVSS	low polyreactivity
QVQLVESGGGLVQAGGSLRFSCAASGRTFQYYAMGWSRQAPGKERELVAAISQDGGSTYYADSVKGRFTISRDNAKNTVYLQMNSLKPEDTAVYYCAAEVWRSYGYWGQGTQVTVSS	low polyreactivity
QVQLVESGGGLVQAGGSLRLSCAASGSTFAAKAMGWYRHAPGKERELVAAITSSGGSTYYADSVKGRFTISRDNAKNTVYLQMNSLKPEDTAVYYCNKDNERYVRIYDSWGQGTQVTVAS	low polyreactivity
QVQLVESGGGLVQAGGSLRLSSAASGRTFWVYAMGCYRQAPGKESELVAAISRSGVSTYYADSVMGRFTISRDNAKNTVYLQMNSLKPEDTAVYYCAAPLIYTPLKYHYWGQGTQVTVSS	low polyreactivity
QVQLVESGGGLVQAGGSLRLSCAASGRIFYWYARGWYRQAPGKERELVASISRRAGSTYYADSVKGRFTISRDNAKNTVYLQMHSLKPEDTAVYYCAAVGRFDRVFDYDYWGQGTQVTVSS	high polyreactivity
QVQLVESGGGLVQAGGSLRLSCGASGSTSKYYAMGWYRQAPGKERELVAAITWSDVSTYFADSVKGRFTISRDNAKHNVYLQMNSLKPEDTAVYYCNAGYDYWGQGTQVTVSS	low polyreactivity

QVQLVESGGGLVQAGGSLRLSCAASGSTFYYYAMGWSRQAPGKERELVAGITWSGGRTYYADSVKGRFTISRDNAKNTVYLQMNSLKTEDTAVYYCAASLYTWTYQPVYYRDGYWGQGTQVTVSS yielded polyreactivity (PSR sort gate) of low polyreactivity

QVQLVESGGGLVQAGASLRLSCAASGLTYSHYAMGWYRQAPGKERQLVAGISSRGGNTYYADSVKGRFTISRDNAKNTVYLQMNSLKPEDTAVYYCNAPKPKRAYDYWGQGTQVTVSS has a reported polyreactivity (PSR sort gate) of high polyreactivity

The sequence KVQLGVSGGGLVQAGGSLRLSCASSGFIFRYYAMGWSRQAPGKERELVAGISSGGSTYYADSVKGRFTISRDNAKNTVYLKMNSLKPEDTAVYYCNAVYSSGVDGSEGFDYWGQGTQVTVSS showed polyreactivity (PSR sort gate) equal to low polyreactivity

Form field polyreactivity (PSR sort gate), entry QVQLVESGGGVVQAGGSLRLSCAASGSTFLVNAMGWYRQAPGKERELVAAISRSTGSTYYADSVKGRFTISRDNAKNSVYLQMNSLKPEDTAVYYCAVYRHGYGYNYWGQGTQVTVSS : high polyreactivity

Lookup result for QVQLVESGGGLVQAGGSLRLSCAASGNTFRWYAMGWYRQAPGKEREFVADITVRGGSTYYADSVKGRFTISRDNAKNTVYLQMNSLKPEDTAVYYCASYHYYTYDYWGQGTQVTVSS ; measured polyreactivity (PSR sort gate): low polyreactivity

###

# TEST_DETAILS: yeast display, Sf9 membrane polyspecificity reagent, FACS + sequencing; frameworks hold sequencing errors
VALUE_KIND: polyreactivity (PSR sort gate)

The cases that follow already have their polyreactivity (PSR sort gate) on record.
RESIDUE_SEQUENCE	OBSERVED_RESULT
QVQLVESGGGLVQAGGSLRLSCAASGFTLTLRYAMGWYRQAPGKERELVAAISSGGRTKYADSVKGRFTISRDNAKNTVYLQMNSLKPEDTAVYYCAADLYDPYHVYGYNYWGQGTQVTVSS	low polyreactivity
QLQLVESGGGLVQAGGSLRLSCAASGFTFRWNAMGWYRQAPGKERELLAAITNDDSTYYADSVKGRFTISRDNAKNSVYLQLNSLKPEDTAVYYCNARYGRYLDLDTGVALAGRGYWGQGTQVTVSS	low polyreactivity
QVQLVESGGGLVQAGGSLRLSCAASGSIFYDNAMGWYRQAPGKERELVAAIRGRGGSTYYADSVKGRFTISRDNAKNTVYLQMNSLKPEDTAVYYCNALNYRYRKYDYWGQGTQVTVSS	high polyreactivity
QVQLVESGGGLVQAGGSLRLSCAASGSTFSSNAMGWYRQAPGKERELVAAINRTGNTYYADSVKGRFTISRDNEKNTVYLQMNSLKPEDTAVYYCNTDLNLYRGGGYWGQGTQVTVSS	low polyreactivity
QVQLVESGGGLVQAGGSLRLSCAASGFIFWRNAMGWDRQAPGKDRELVATISRSGGSTYYADSVKGRFTISRDTAKNTVYLQMNSLKPEDTAVYYCATVPWYYWGTHRTLYDYWGQGTQVTVSS	high polyreactivity

polyreactivity (PSR sort gate) measured on HVQLVESGGRLVQAGGSLRLSCAASGIIFGYYAMGWYRQAPGNERELVAAIDWTGGNTYYADSVKGRFRISRDIAKNTVYLQMNSLKPEDTAVYYCAADYYSQEDYWGQGTQVTVSS = low polyreactivity

The recorded polyreactivity (PSR sort gate) for entry QDQLVESGGGLVQAGGSLRISCAASGFTLKKYVMGWYRQAPGKERELVAAISSSGGSTYYADSVKGRFTISRDNAKNTVYLQMNSLKPEDTAVYYCAAVQSYAGFEYGYWGQGTQVTVSS equals high polyreactivity

# polyreactivity (PSR sort gate) (sequence: QVQLVESGGGLVQAGGSLRLSCAASGRTFAVYAMGWYRPAPGKERELVAGITSGGSTNYADSVKGRFTISRDNAKNTVYLQMNSLKPEDTAVYYCAAENVYAGFGFVSIGDYWGQGTQVTVSS ) is low polyreactivity

Hello, the source for this data is the nanobody polyreactivity screen of Harvey et al. (2022), in case you need it.
